assayed.system: T1, dT14-3-3_biPKA, unphosphorylated (Tobacco | )
T1 chain: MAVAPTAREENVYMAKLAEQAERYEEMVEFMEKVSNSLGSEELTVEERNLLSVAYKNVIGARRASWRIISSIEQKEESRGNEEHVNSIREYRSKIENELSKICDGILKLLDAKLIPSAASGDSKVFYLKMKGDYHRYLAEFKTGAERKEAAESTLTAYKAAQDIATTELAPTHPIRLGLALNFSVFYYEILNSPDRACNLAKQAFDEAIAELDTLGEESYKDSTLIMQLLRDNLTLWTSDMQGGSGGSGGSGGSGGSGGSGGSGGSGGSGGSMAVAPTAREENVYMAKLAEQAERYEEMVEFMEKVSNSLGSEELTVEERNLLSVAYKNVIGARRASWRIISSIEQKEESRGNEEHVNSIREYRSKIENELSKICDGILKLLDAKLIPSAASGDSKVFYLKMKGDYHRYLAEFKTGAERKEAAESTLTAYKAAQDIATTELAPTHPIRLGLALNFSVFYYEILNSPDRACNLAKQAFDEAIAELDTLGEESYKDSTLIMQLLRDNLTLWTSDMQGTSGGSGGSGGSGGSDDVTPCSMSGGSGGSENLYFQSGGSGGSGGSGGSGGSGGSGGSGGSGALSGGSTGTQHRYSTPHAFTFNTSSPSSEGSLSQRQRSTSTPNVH
procedure.summary: FP
observable: Kd (µM)

QGLLDALDLAS [mExoS peptide (C-terminal region of exoenzyme S)] : 5.77
